PROTOCOL TEXT: qHTS profiling for inhibitors of Plasmodium falciparum proliferation (AID 504749);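 further: 0% = DMSO vehicle and full inhibition = artemisinin control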
CONDITION SUMMARY: P. falciparum in erythrocytes, SYBR Green DNA, 72 h; at 28.7 µM (top of the series); parasite line A
Inconclusive results are not listed.
We begin with a simple list: items and their reported activity, negative = inhibition.

COMPOUND | activity, negative = inhibition / %
C[C@@H]1O[C@H](O[C@@H]2\C=C/C=C\C=C/C=C\C[C@H](C)OC(=O)/C=C\[C@H]3O[C@@H]3C[C@H](O)C[C@]3(O)C[C@@H](O)[C@@H](C(=O)O)[C@H](C2)O3)[C@@H](O)[C@H](N)[C@@H]1O (stereo in doubt) | 9.05
COC(=O)N/N=C/C1=C[N+](=O)c2ccccc2[N+]1=O | -2.61
NCC1CCC(N)C(O[C@@H]2C(O)[C@H](O[C@H]3OC(CO)C(O)C(N)C3O)[C@@H](N)C[C@H]2N)O1 (some centres undefined) | 7.73
CC(C)C1CCC(C(=O)NC(Cc2ccccc2)C(=O)O)CC1 (centres undefined) | -12
OCC1O[C@H](OC2C(CO)O[C@@](O)(CO)C2O)C(O)C(O)C1O (some centres undefined) | 9.31
OCC1OC(n2cnc3c(=S)nc[nH]c32)C(O)C1O (centres undefined) | -27.9
CC(C)Oc1ccc2c(=O)cc(-c3ccccc3)oc2c1 | -21.9
C[C@]1(c2ccccc2)OC(C(=O)O)=CC1=O | 4.24
CC(=O)OC1CCC2C3CCc4cc(O)ccc4C3CCC12C (centres undefined) | 6.77
